Origin of the recorded values: the C3SDB collision cross section collection

Conditions: [M+Na]+; instrument: DT; single field, calibrated with Agilent tune mix (Agilent)
measure: collision cross section (N2) (Å²)
One number for each entry, in Å².

See these solved cases before continuing.
CNc1nc(=O)c2ncn([C@@H]3O[C@H](CO)[C@@H](O)[C@H]3O)c2[nH]1
178.4
O=P(O)(O)O[C@]1(CO)O[C@H](CO)[C@@H](O)[C@@H]1O [Beta-D-Fructose 2-phosphate]
154
CC(=O)N[C@H]1C(O)O[C@H](COP(=O)(O)O)[C@@H](O)[C@@H]1O (stereo partly drawn) [N-Acetyl-D-Glucosamine 6-Phosphate]
164

Quick one: give me collision cross section (N2) for each item below, same order please.
1. O=C(O)[C@@H](O)[C@H](O)[C@H](O)[C@@H](O)C(=O)O [D-Galactarate]
2. Cn1cc(CCN)c2ccccc21
3. NC(=O)CC[C@H](N)C(=O)O
4. Nc1nc(=O)c2ncn([C@@H]3O[C@H](COP(=O)(O)OP(=O)(O)O[C@H]4O[C@H](CO)[C@@H](O)[C@H](O)[C@@H]4O)[C@@H](O)[C@H]3O)c2[nH]1 [Guanosine diphosphate mannose]

147.3
139
133.7
220.9

Quick one: give me collision cross section (N2) for each item below, same order please.
1. C[C@@H](N)C(=O)N[C@H](C)C(=O)O
2. Nc1nc(=O)c2ncn([C@@H]3O[C@H](CO)[C@@H](O)[C@H]3O)c2[nH]1
3. O=C(O)CC[C@@](O)(CC(=O)O)C(=O)O [Homocitrate]
4. OC[C@H]1O[C@H](O[C@H]2[C@H](O)[C@@H](O)[C@H](O)O[C@@H]2CO)[C@H](O)[C@@H](O)[C@@H]1O
5. O=c1nc[nH]c2c1ncn2[C@@H]1O[C@H](CO)[C@@H](O)[C@H]1O

142.8
174.6
145
178.1
170.7

Quick one: give me collision cross section (N2) for each item below, same order please.
1. O=C(O)C(CO)OP(=O)(O)O (racemic) [DL-2-Phosphoglycerate]
2. NC(=O)N[C@@H](CC(=O)O)C(=O)O [N-carbamoyl-L-aspartate]
3. OC1OC[C@@H](O)[C@H](O)[C@H]1O (some centres not stated)
4. Nc1ccn([C@@H]2O[C@H](CO)[C@@H](O)[C@H]2O)c(=O)n1
5. OC[C@H]1OC(O)[C@@H](O)[C@@H](O)[C@@H]1O (some centres not stated)

1: 141.8; 2: 139.1; 3: 134.6; 4: 159.5; 5: 140.8

###

Give collision cross section (N2) for every item shown.
Details: [M+H]+; instrument: TW; Major Mix IMS/Tof Calibration Kit (Waters)
One number for each entry, in Å².

Quick one: give me collision cross section (N2) for each item below, same order please.
1. Cc1cccc(C)c1NC(=O)C1CCCCN1C (centres undefined) [Mepivacaine]
2. O=C1CC2(CCCC2)CC(=O)N1CCCCN1CCN(c2ncccn2)CC1 [Buspirone]
3. CN(C)CCCC1(c2ccc(F)cc2)OCc2cc(C#N)ccc21 (centres undefined) [Citalopram]
4. O=C(NCCN1CCOCC1)c1ccc(Cl)cc1 [Moclobemide]
5. Clc1ccc2nsnc2c1NC1=NCCN1 [Tizanidine]
6. CCOC(=O)[C@H]1[C@@H](OC(=O)c2ccccc2)C[C@@H]2CC[C@H]1N2C [Cocaine-M Cocaethylene]
7. CCCCNC(=O)NS(=O)(=O)c1ccc(C)cc1 [Tolbutamide]

159.1
199.3
180.1
162.5
149.4
173.5
163

Quick one: give me collision cross section (N2) for each item below, same order please.
1. CC1CCN(CCCC(=O)c2ccc(F)cc2)CC1 [Melperone]
2. CN1C(=O)CN=C(c2ccccc2F)c2cc([N+](=O)[O-])ccc21 [Flunitrazepam]

1. 163.5
2. 168.6
